# pIC50 annotations
Tested on: KRAS G12V dependent lung adenocarcinoma cell line, NCI-H441
Assay: Cellular pERK (Thr202/Tyr204) FRET/HTRF assay
Format: cell-based
Settings: Homo sapiens, NCI-H441, cellular pERK (Thr202/Tyr204) HTRF, NCI-H441 cells
pIC50: −log10 of the molar value.

Examples with their reported pIC50 follow.
[2H]C([2H])(Oc1nc(N2CCC(=O)C[C@@H]3[C@H](F)[C@@H]32)c2cnc(-c3cc(N)cc4cc(F)c(F)c(C#C)c34)c(F)c2n1)[C@@]12CCCN1C[C@H](F)C2	6.30 to 7.30
C#Cc1c(F)ccc2cc(N)cc(-c3ncc4c(N5CCOC[C@H]6[C@H](F)[C@H]65)nc(OC[C@@]56CCCN5[C@@H](C)[C@H](F)C6)nc4c3F)c12	> 7.30
C#Cc1c(F)ccc2cccc(-c3ncc4c(N5CCOC[C@H]6[C@H](F)[C@H]65)nc(OC[C@]56CCCN5CC(=C(F)F)C6)nc4c3F)c12	> 7.30
C#Cc1c(F)ccc2cc(N)cc(-c3ncc4c(N5CCOC[C@H]6[C@H](F)[C@H]65)nc(OC[C@]56CC(=C)CN5CCC65CC5)nc4c3C)c12	> 7.30
C#Cc1c(C(F)(F)F)ccc2cccc(-c3ncc4c(N5CCOC[C@H]6[C@H](F)[C@H]65)nc(OC[C@]56C[C@@H](F)CN5C[C@@H](CN)C6)nc4c3F)c12	5.00 to 6.30

Assay KRAS G12V dependent lung adenocarcinoma cell line, NCI-H441, sample "[2H]C([2H])(Oc1nc(N2CCCC[C@H]3[C@H](F)[C@H]32)c2cnc(-c3cc(N)cc4c(F)cc(F)c(C#C)c34)c(F)c2n1)[C@@]12CCCN1C[C@H](F)C2" , pIC50 read: > 7.30

Assay KRAS G12V dependent lung adenocarcinoma cell line, NCI-H441, sample "[2H]C([2H])(Oc1nc(N2CCOC[C@H]3[C@H](Cl)[C@H]32)c2cnc(-c3cc(N)cc4ccc(F)c(C#C)c34)c(F)c2n1)[C@@]12CCCN1[C@H](C)[C@H](F)C2" , pIC50 read: > 7.30

Assay KRAS G12V dependent lung adenocarcinoma cell line, NCI-H441, sample "[2H]C([2H])(Oc1nc(N2CCOC[C@H]3[C@H](F)[C@H]32)c2cc(Cl)c(-c3cc(N)c(F)c(C)c3C(F)(F)F)c(F)c2n1)[C@@]12CCCN1C[C@H](F)C2" , pIC50 read: 6.30 to 7.30

Assay KRAS G12V dependent lung adenocarcinoma cell line, NCI-H441, sample "C#Cc1c(F)ccc2cc(N)cc(-c3ncc4c(N5CCOC[C@H]6[C@H](F)[C@H]65)nc(OC[C@@]56CCCN5C/C(=C\F)C6)nc4c3F)c12" , pIC50 read: > 7.30

Assay KRAS G12V dependent lung adenocarcinoma cell line, NCI-H441, sample "[2H]C([2H])(F)Oc1c(F)ccc2cccc(-c3ncc4c(N5CCCC[C@H]6[C@H](F)[C@H]65)nc(OC[C@]56CC(=C)CN5CCC65CC5)nc4c3F)c12" , pIC50 read: > 7.30

====

Tested on: KRAS G12V dependent lung adenocarcinoma cell line, NCI-H441
Test: Cellular pERK (Thr202/Tyr204) FRET/HTRF assay
Format: cell-based
Conditions: Homo sapiens, NCI-H441, cellular pERK (Thr202/Tyr204) HTRF, NCI-H441 cells
pIC50: −log10 of the molar value.
# pIC50 annotations

Examples with their reported pIC50 follow.
C#Cc1c(F)ccc2cccc(-c3ncc4c(N5CCOC[C@H]6[C@H](F)[C@H]65)nc(OC[C@]56CC(=C)CN5CCC65CC5)nc4c3F)c12 [Example 166]	> 7.30
[2H]C([2H])(Oc1nc(N2CCOC[C@@H]3[C@@H](F)[C@@H]32)c2c(OC)nc(-c3cccc4ccc(F)c(C#C)c34)c(F)c2n1)[C@@]12CCCN1C[C@H](F)C2 [Example 236]	5.00 to 6.30

For [2H]C([2H])(F)Oc1c(F)ccc2cc(N)cc(-c3ncc4c(N5CCOC[C@H]6[C@H](F)[C@H]65)nc(OC[C@@]56CCCN5C[C@@]5(CC5(F)F)C6)nc4c3F)c12 (single isomer, unassigned) [Example 229] the molecule record lists pIC50 as > 7.30

For [2H]C([2H])(Oc1nc(N2CCOC[C@H]3[C@H](F)[C@H]32)c2cnc(-c3cc(N)c(F)c(C)c3C(F)(F)F)c(F)c2n1)[C@@]12CCCN1C[C@H](F)C2 [Example 167] the molecule record lists pIC50 as > 7.30

For C#Cc1c(F)ccc2cccc(-c3ncc4c(N5CCCC[C@H]6[C@H](F)[C@H]65)nc(OC[C@]56C/C(=C\F)CN5CCC65CC5)nc4c3F)c12 [Example 377] the molecule record lists pIC50 as > 7.30

Reference for the values: patent US20250282799A1
